Listed below: viability at 0.1 µM values for each entry.
System: Hep 3B2
Experiment: Proliferative activity against human Hep3B cells assessed as cell viability at 0.1 uM after 4 days by cell counting method relative to control
Format: functional
Conditions: 96 h, read-out: Activity
Put down the number, then write its unit next to it.

Please review the entries below; each comes with its answer.
molecule="O=C(CCc1ccc(O)cc1)c1ccc(O)cc1O [DAVIDIGENIN]" meas_value=104%
molecule=C/C(=C\Cc1c(O)ccc(C(=O)/C=C/c2ccc(O)cc2)c1O)CCC(=O)O meas_value=100%
molecule=C/C=C(/C)C(=O)O[C@@H]1c2c(ccc3ccc(=O)oc23)OC(C)(C)[C@@H]1O[C@@H]1O[C@H](CO)[C@@H](O)[C@H](O)[C@H]1O meas_value=101%

Request: Dear colleague, I am looking for the recorded viability at 0.1 µM of the following molecule: C=C(C)[C@H]1CC[C@](C)([C@@H](O)Cc2c(O)ccc(C(=O)/C=C/c3ccc(O)cc3)c2O)O1 (racemic)
Response: 100%

Request: Do the same for CC(C)C(=O)O[C@@H]1Cc2c(ccc3ccc(=O)oc23)OC1(C)C please
Response: 100%

Request: Also O=C(/C=C/c1ccc(O)cc1)c1ccc(O)cc1O [ISOLIQUIRITIGENIN] , if possible.
Response: 101%

Request: Moving on to O=C1CC(c2ccc(O)cc2)Oc2cc(O)ccc21 (racemic)
Response: 100%

Request: // query: CC(C)=CCCC(C)(O)C1Cc2c(O)ccc(C(=O)/C=C/c3ccc(O)cc3)c2O1 (centres undefined)
Response: 100%

Request: Again, but for CO[C@H]1c2c(ccc3ccc(=O)oc23)O[C@@H]1C(C)(C)O
Response: 106%
